Cited source: patent US9512107B2

Could you please report measured IC50 for the items listed next?
Molecular target: IDH2 R140Q (Homo sapiens, UniProt P48735, R140Q)
Sequence (P48735 40-452 R140Q): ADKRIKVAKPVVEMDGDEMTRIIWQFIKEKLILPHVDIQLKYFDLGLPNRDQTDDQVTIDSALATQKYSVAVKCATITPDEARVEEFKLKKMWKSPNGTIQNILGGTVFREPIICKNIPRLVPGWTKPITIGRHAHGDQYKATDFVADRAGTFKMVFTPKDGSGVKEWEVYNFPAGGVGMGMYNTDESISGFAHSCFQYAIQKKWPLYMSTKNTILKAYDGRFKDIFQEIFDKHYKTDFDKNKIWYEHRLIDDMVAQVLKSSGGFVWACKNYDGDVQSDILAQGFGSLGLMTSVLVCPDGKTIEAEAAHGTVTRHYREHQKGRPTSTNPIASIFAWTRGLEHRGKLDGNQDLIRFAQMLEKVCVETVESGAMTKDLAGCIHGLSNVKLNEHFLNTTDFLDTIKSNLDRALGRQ
Assay: IDH2 R140Q enzymatic assay (cofactor depletion, similar format)
Type: biochemical
Details: read-out: Enz R140Q

Guide cases for IC50, answers given:
1) COc1cccc(-c2nc(Nc3ccccc3)nc(NC(C)C)n2)c1 [Compound 115]
< 100 nM
2) Fc1cc(Nc2nc(NC3COC3)nc(-c3cccc(C(F)(F)F)n3)n2)ccn1 [Compound 377]
100 to 1000 nM
3) CC1(Nc2nc(Nc3ccncc3)nc(-c3ccccc3)n2)CC1 [Compound 218]
< 100 nM

Field: IC50. Fill in for each record below.
1. CC(C)(O)CNc1nc(Nc2cncc(F)c2)nc(-c2ccccc2F)n1 [Compound 621]
2. CC(C)(C)Nc1nc(Nc2ccnc(C(C)(F)F)c2)nc(-c2cccc(C(F)(F)F)n2)n1 [Compound 567]
3. FC(F)(F)CNc1nc(Nc2ccncc2)nc(-c2ccccc2)n1 [Compound 215]
4. CNc1ccc(Nc2nc(NC(C)C)nc(-c3ccccc3)n2)cn1 [Compound 303]
5. CC(C)CNc1nc(Nc2ccncc2)nc(-c2ccccc2)n1 [Compound 190]

(A)
1: 100 to 1000 nM; 2: 100 to 1000 nM; 3: < 100 nM; 4: 1000 to 10000 nM; 5: < 100 nM

Please look at the items below and tell me IC50 for each one, in order.
1. CC(C)Nc1nc(Nc2ccc(F)nc2)nc(-c2nccc(C(F)(F)F)n2)n1 [Compound 535]
2. CC(C)Nc1nc(Nc2cccc(S(=O)(=O)N3CCC3)c2)nc(-c2ccccc2)n1 [Compound 376]
3. CC(C)(C)Nc1nc(Nc2cc(F)cc(F)c2)nc(-c2cccc(C(C)(F)F)n2)n1 [Compound 585]
4. c1ccc(-c2nc(Nc3ccncc3)nc(NC3CCC3)n2)cc1 [Compound 188]
5. CC(C)Nc1nc(Nc2cccc(CO)c2)nc(-c2ccccc2)n1 [Compound 150]

(A)
1: 100 to 1000 nM; 2: 100 to 1000 nM; 3: 100 to 1000 nM; 4: < 100 nM; 5: 100 to 1000 nM

Go through the list and state IC50 for each entry.
1. CC(C)Nc1nc(Nc2ccnc(C(C)(C)O)c2)nc(-c2ccccc2F)n1 [Compound 632]
2. CC(C)Nc1nc(Nc2ccc(S(C)(=O)=O)cc2)nc(-c2ccccc2)n1 [Compound 452]
3. CC(C)(C)CNc1nc(Nc2cncc(C#N)c2)nc(-c2cccc(Cl)n2)n1 [Compound 498]
4. c1ccc(-c2nc(Nc3ccncc3)nc(N[C@@H]3C[C@@H]4CC[C@H]3C4)n2)cc1 [Compound 295]
5. CC(C)Nc1nc(Nc2cccc(S(C)(=O)=O)c2)nc(-c2nc(F)ccc2F)n1 [Compound 454]

(A)
1: 100 to 1000 nM; 2: 100 to 1000 nM; 3: 100 to 1000 nM; 4: < 100 nM; 5: 100 to 1000 nM

Give me IC50 for each of these compounds, listed below.
1. Clc1cncc(Nc2nc(NC3CCC3)nc(-c3ccccn3)n2)c1 [Compound 330]
2. CC(C)Nc1nc(Nc2cccc(S(C)(=O)=O)c2)nc(-c2cccc(C(C)(F)F)n2)n1 [Compound 395]
3. c1ccc(-c2nc(Nc3ccncc3)nc(NC3CCOC3)n2)cc1 (centres unmarked) [Compound 235]
4. CC(C)Nc1nc(Nc2ccnc(C(C)(F)F)c2)nc(-c2cccc(Cl)n2)n1 [Compound 513]

(A)
1. 100 to 1000 nM
2. 100 to 1000 nM
3. 100 to 1000 nM
4. 1000 to 10000 nM

Please give IC50 for each item listed below.
1. CC(C)Nc1nc(Nc2cccc(S(=O)(=O)NC3CC3)c2)nc(-c2ccccc2)n1 [Compound 341]
2. CC(C)(O)CNc1nc(Nc2ccnc(F)c2)nc(-c2cccc(C(F)(F)F)n2)n1 [Compound 500]
3. CC(C)OCC(=O)Nc1nc(Nc2ccccc2)nc(-c2ccccc2)n1 [Compound 244]
4. O=C(Nc1nc(Nc2ccccc2)nc(-c2ccccc2)n1)C1(O)CC1 [Compound 412]
5. CC(C)Nc1nc(Nc2cncc(C#N)c2)nc(-c2ccccc2)n1 [Compound 210]

(A)
1: < 100 nM; 2: 100 to 1000 nM; 3: 100 to 1000 nM; 4: 1000 to 10000 nM; 5: < 100 nM

Working through the 7 compounds below one at a time, give IC50 for each.
1. Fc1ccc(Nc2nc(NC3COC3)nc(-c3cccc(Cl)n3)n2)cn1 [Compound 410]
2. CC#Cc1cccc(-c2nc(Nc3cc(F)cc(F)c3)nc(NC(C)C)n2)n1 [Compound 463]
3. CC(=O)Nc1cccc(-c2nc(Nc3ccnc(C(F)(F)F)c3)nc(NC(C)C)n2)n1 [Compound 697]
4. COC(=O)c1cc(Nc2nc(NC(C)C)nc(-c3ccccc3)n2)ccn1 [Compound 346]
5. CC(C)Nc1nc(Nc2ccnc(C3(C#N)CC3)c2)nc(-c2cccc(C(F)(F)F)n2)n1 [Compound 669]
6. CNc1cccc(-c2nc(Nc3cc(F)cc(F)c3)nc(NC(C)C)n2)n1 [Compound 465]
7. CC(C)Nc1nc(Nc2cncc(C#N)c2)nc(-c2cccc(C(F)(F)F)n2)n1 [Compound 401]

(A)
["> 10000 nM", "100 to 1000 nM", "100 to 1000 nM", "< 100 nM", "100 to 1000 nM", "100 to 1000 nM", "100 to 1000 nM"]

(Q) Quickly give me recorded IC50 for CC(C)C(CO)Nc1nc(Nc2ccccc2)nc(-c2ccccc2)n1 (centres unmarked) [Compound 242]
(A) 100 to 1000 nM
